- TARGET OR SYSTEM: T1, human Fibroblast Activation Protein (FAP), soluble antigen (human, UniProt Q12884 26-760, biotinylated when immobilized on streptavidin sensors)
- T1 construct: also called hFAP; biotinylated FAP
- T1 sequence (Q12884 26-760 limits assumed): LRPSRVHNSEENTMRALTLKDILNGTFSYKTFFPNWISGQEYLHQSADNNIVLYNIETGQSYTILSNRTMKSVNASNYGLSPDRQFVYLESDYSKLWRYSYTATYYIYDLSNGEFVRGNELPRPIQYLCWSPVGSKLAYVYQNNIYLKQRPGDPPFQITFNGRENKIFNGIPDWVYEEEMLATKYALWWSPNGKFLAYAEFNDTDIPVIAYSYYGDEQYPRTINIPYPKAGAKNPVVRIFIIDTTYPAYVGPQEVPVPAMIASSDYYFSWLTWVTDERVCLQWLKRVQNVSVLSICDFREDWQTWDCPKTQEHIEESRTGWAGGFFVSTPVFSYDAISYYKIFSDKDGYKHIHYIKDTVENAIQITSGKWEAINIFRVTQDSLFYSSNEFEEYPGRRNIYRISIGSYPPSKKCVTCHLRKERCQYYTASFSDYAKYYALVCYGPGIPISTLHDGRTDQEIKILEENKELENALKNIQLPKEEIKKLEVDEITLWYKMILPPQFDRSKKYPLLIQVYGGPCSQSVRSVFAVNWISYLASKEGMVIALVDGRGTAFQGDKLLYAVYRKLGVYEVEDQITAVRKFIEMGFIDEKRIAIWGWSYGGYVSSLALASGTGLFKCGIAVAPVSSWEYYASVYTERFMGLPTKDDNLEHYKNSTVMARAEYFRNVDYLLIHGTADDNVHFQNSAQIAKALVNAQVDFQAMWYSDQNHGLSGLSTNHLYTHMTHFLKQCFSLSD
- RUN DESCRIPTION: BLI per 6.1.3
Kd values for the binders below.
Express it in nM; write the number only.

Record excerpt, results attached:
BINDER	UNITS	Kd
D029 HV2LV2 (bispecific antibody, V domains shown, also called Rev1-Q27G:P94Y:L96F/S55L:S32F) VH: EVQLVESGGGLVQPGGSLRLSCAASGFTFTWFFMSWVRQAPGKGLEWVSWIGPSGLYTDYADSVKGRFTISRDNSKNTLYLQMNSLRAEDTAVYYCARSQYGRYYSPDYYFDYWGQGTLVTVSS VL: DIQMTQSPSSLSASVGDRVTITCRASGALGFYLNWYQQKPGKAPKLLIYAASSLSSGVPSRFSGSGSGTDFTLTISSLQPEDFATYYCQQGRTYPFTFGQGTKVEIKR	nM	1.98
D029 HV3LV1 (bispecific antibody, V domains shown, also called D029L-Rev1/S55L:T30R:S32F; Rev1/S55L:T30R:S32F) VH: EVQLVESGGGLVQPGGSLRLSCAASGFTFRWFFMSWVRQAPGKGLEWVSWIGPSGLYTDYADSVKGRFTISRDNSKNTLYLQMNSLRAEDTAVYYCARSQYGRYYSPDYYFDYWGQGTLVTVSS VL: DIQMTQSPSSLSASVGDRVTITCRASQALGFYLNWYQQKPGKAPKLLIYAASSLSSGVPSRFSGSGSGTDFTLTISSLQPEDFATYYCQQGRTPPLTFGQGTKVEIKR	nM	1.79

Request: // lookup Kd for D029 HV2LV1 (bispecific antibody, V domains shown, also called Rev1/S55L:S32F) VH: EVQLVESGGGLVQPGGSLRLSCAASGFTFTWFFMSWVRQAPGKGLEWVSWIGPSGLYTDYADSVKGRFTISRDNSKNTLYLQMNSLRAEDTAVYYCARSQYGRYYSPDYYFDYWGQGTLVTVSS VL: DIQMTQSPSSLSASVGDRVTITCRASQALGFYLNWYQQKPGKAPKLLIYAASSLSSGVPSRFSGSGSGTDFTLTISSLQPEDFATYYCQQGRTPPLTFGQGTKVEIKR
Response: 2.31
